This collection of values is drawn from patent US12398179.

test-system: T1, EphA2 extracellular domain fused to the Fc portion of an antibody (EphA2 Fc)
T1 construct: extracellular domain; Immobilized in the ELISAs
T1 sequence (P29317 whole entry, the tested form may be a part): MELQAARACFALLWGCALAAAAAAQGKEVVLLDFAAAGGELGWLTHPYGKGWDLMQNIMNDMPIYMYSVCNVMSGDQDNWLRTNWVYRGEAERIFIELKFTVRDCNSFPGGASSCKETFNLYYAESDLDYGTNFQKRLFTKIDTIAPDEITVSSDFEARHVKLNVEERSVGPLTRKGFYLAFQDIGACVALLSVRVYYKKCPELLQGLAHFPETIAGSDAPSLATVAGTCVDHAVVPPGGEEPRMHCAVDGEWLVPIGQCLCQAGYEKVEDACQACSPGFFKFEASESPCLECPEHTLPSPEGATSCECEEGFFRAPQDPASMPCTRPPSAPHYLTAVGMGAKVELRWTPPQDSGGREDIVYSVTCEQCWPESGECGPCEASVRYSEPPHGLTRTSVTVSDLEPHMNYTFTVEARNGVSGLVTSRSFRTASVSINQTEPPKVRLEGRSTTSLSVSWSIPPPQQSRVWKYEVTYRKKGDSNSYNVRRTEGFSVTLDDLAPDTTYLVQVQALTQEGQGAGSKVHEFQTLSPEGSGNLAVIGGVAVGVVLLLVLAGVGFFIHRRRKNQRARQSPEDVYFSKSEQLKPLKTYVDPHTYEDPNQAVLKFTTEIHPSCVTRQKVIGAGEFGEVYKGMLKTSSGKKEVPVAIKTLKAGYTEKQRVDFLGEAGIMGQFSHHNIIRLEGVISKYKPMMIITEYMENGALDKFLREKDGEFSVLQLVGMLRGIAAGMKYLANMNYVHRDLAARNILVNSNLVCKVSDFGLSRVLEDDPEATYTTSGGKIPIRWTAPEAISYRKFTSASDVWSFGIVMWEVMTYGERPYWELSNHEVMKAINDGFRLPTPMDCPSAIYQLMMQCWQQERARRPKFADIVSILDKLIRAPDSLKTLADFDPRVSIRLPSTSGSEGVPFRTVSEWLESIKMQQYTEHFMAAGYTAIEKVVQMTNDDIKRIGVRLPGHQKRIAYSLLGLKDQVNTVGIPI
run-description: ELISA, inhibition of ephrin-A5 AP binding to immobilized EphA2 Fc; representative experiment; concentrations in nM
pIC50: −log10 of the molar value. Non-standard residues stand in square brackets, D forms with d. No end group written: not given here. *: point of attachment. Biotin = O=C1N[C@H]2[C@H](CS[C@H]2CCCCC(=O)*)N1; βAla = NCCC(=O)O
readout-type: pIC50

See these solved cases before continuing.
>>> endpoint_value("[βAla]WLAYPDSVPYRPK (also called BA-WLA-YRPK) [βA-WLA-YRPK]")
7.28
>>> endpoint_value("[βAla]WLAYPDSVPYRPK-NH2 (also called BA-WLA-YRPKam) [βA-WLA-YRPKam]")
7.62

I: YSAYPDSVPMMSGSGSK [YSA-GSGSK]
II: KAWLAYPDSVPYRPK (biotin on the N-terminal lysine (K-bio); C-terminal amide (am)) [K-bioA-WLA-YRPKam]
III: [βAla]WLAYPDSVPY-NH2 (also called bA-WLA-Yam; BA-WLA-Yam) [βA-WLA-Yam]
IV: [βAla]WLAYPDSVPYRPK(Biotin) (also called bA-WLA-YRPK-bio; BA-WLA-YRPK-bio) [βA-WLA-YRPK-bio]
Provide the items ranked by increasing pIC50. Output spec: a listing of the labels in the requested order.
I, III, IV, II
(I: 5.35, III: 6.36, IV: 7.43, II: 7.85)
